Field: IC50. Provide a value for each of the compounds that follow.

Request: Any idea what IC50 came out for O=c1ccc2c(-c3ccccc3F)cccc2n1-c1ccc(F)cc1 on MAPK14 (human)?
Response: < 1 µM

Request: Any idea what IC50 came out for O=c1ccc2c(-c3ccc(F)cc3)ccnc2n1-c1ccc(F)cc1 on MAPK14 (human)?
Response: < 1 µM
